Assay protocol: Pharmacokinetics from brain levels after i.p. administration to rats
Type: in vivo, rat
Condition description: rat, ip; brain, rats, i.p. 80 mg/kg, mean; read-out: tmax
Readout label: Tmax (h)
Answer with a number only, understood to be in h.

Q: Reported Tmax for CCC(C)CCOC(=O)Nc1ccc(S(N)(=O)=O)cc1 (racemic) [MSPC (racemate)] : what is it?
A: 1.6

* * *

Assay protocol: Pharmacokinetics from brain levels after i.p. administration to rats
Format: in vivo, rat
Condition description: rat, brain, ip; AUCbrain/AUCplasma, rats, i.p. 80 mg/kg; read-out: brain-to-plasma-(AUC)-ratio (BPR)
Readout label: Kp

Q: Reported Kp for CCC(C)CCOC(=O)Nc1ccc(S(N)(=O)=O)cc1 (racemic) [MSPC (racemate)] : what is it?
A: 1.85

* * *

Assay protocol: Pharmacokinetics from plasma levels after i.p. administration to rats
Format: in vivo, rat
Condition description: rat, ip, plasma, i.p. 80 mg/kg, mean
Readout label: half-life

Q: Reported half-life for CCC(C)CCOC(=O)Nc1ccc(S(N)(=O)=O)cc1 (racemic) [MSPC (racemate)] : what is it?
A: 126 min

* * *

Readout label: pKi
Recall that pKi is obtained by taking minus log10 of the concentration measured in molar.

Q: Requested read-out pKi, target or system hCA VII (Homo sapiens, UniProt P43166), entry CCC(C)CCOC(=O)Nc1ccc(S(N)(=O)=O)cc1 (racemic) [MSPC (racemate)]
A: 6.45

Q: Requested read-out pKi, target or system hCA VII (Homo sapiens, UniProt P43166), entry CC[C@H](C)CCOC(=O)Nc1ccc(S(N)(=O)=O)cc1 [(S)-MSPC]
A: 6.13

Q: Requested read-out pKi, target or system hCA VII (Homo sapiens, UniProt P43166), entry CC[C@@H](C)CCOC(=O)Nc1ccc(S(N)(=O)=O)cc1 [(R)-MSPC]
A: 6.77

* * *

Assay protocol: Pharmacokinetics from plasma levels after i.p. administration to rats
Type: in vivo, rat
Condition description: rat, plasma, ip, 80 mg/kg, plasma, i.p. 80 mg/kg, mean, read-out: Cmax
Readout label: Cmax

Q: Reported Cmax for CC[C@H](C)CCOC(=O)Nc1ccc(S(N)(=O)=O)cc1 [(S)-MSPC] : what is it?
A: 7.6 µg/mL

* * *

Assay protocol: Pharmacokinetics from brain levels after i.p. administration to rats
Type: in vivo, rat
Condition description: rat, ip; brain, rats, i.p. 80 mg/kg, mean
Readout label: half-life (h)
Answer with a number only, understood to be in h.

Q: Reported half-life for CCC(C)CCOC(=O)Nc1ccc(S(N)(=O)=O)cc1 (racemic) [MSPC (racemate)] : what is it?
A: 1.9

* * *

I'd be grateful if you could share measured pKi for these entries.
Recall that pKi is obtained by taking minus log10 of the concentration measured in molar.

Q: Requested read-out pKi, target or system hCA II (Homo sapiens), entry CC[C@@H](C)CCOC(=O)Nc1ccc(S(N)(=O)=O)cc1 [(R)-MSPC]
A: 8.48

Q: Requested read-out pKi, target or system hCA II (Homo sapiens), entry CCC(C)CCOC(=O)Nc1ccc(S(N)(=O)=O)cc1 (racemic) [MSPC (racemate)]
A: 8.12

Q: Requested read-out pKi, target or system hCA II (Homo sapiens), entry CC[C@H](C)CCOC(=O)Nc1ccc(S(N)(=O)=O)cc1 [(S)-MSPC]
A: 7.69

Source listed as paper PMC6534253.
